biological target: BRD9 (Homo sapiens, UniProt Q9H8M2); assay: Degradation of BRD9 (IF), immunofluorescence in MV4-11 cells, 24 hours (Assay Protocol 2); format: cell-based; parameters: A suspension of MV4-11 cells (ATCC CRL-9591) was prepared; host or cells: MV4-11; settings: MV4-11, Assay protocol 2; BRD9 degradation; read-out: Dmax
Sequence (Q9H8M2 whole entry): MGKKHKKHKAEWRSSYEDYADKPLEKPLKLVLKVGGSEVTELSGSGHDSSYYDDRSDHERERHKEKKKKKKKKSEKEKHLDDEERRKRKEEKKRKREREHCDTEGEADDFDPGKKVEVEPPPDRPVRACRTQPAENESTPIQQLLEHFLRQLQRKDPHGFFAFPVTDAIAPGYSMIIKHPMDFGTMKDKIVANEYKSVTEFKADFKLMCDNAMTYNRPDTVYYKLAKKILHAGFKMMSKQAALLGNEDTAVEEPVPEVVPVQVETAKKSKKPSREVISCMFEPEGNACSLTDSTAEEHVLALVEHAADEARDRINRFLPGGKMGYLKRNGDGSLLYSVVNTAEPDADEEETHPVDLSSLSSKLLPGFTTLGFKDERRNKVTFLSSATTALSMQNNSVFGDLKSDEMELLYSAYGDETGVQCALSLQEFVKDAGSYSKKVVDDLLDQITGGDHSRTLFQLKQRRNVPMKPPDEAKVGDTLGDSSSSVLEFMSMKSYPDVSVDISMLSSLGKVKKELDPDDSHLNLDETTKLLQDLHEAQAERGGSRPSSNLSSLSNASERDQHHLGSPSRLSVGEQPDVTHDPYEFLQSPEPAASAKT
OBSERVATION TYPE: Dmax

# count of solved cases: 3
| COMPOUND | Dmax |
| --- | --- |
| COc1cc(-c2cn(C)c(=O)c(C)c2C)cc(OC)c1CN1CCN(Cc2cccc3c2CCN(C(=O)/C(C#N)=C/c2cccc(C)n2)C3C)CC1 (mixture of isomers) [Compound B24] | 40 to 70% |
| COc1cc(-c2cn(C)c(=O)c(C)c2C)cc(OC)c1CN1CCN(Cc2cccc3c2CCN(C(=O)/C(C#N)=C/C(C)(C)C)C3C)C2(CCC2)C1 (mixture of isomers) [Compound B130] | > 75% |
| COc1cc(-c2cn(C)c(=O)c(C)c2C)cc(OC)c1CN1CCN(CC(=O)NCCOc2ccc3c(c2)CCN(C(=O)/C(C#N)=C/c2nccs2)C3C)CC1 (mixture of isomers) [Compound B31] | 40 to 70% |

--- query ---
Fill in the recorded Dmax for this compound, with BRD9 (Homo sapiens, UniProt Q9H8M2) as test system: COc1cc(-c2cn(C)c(=O)c(C)c2C)cc(OC)c1CN1CCN(Cc2cccc3c2CCN(C(=O)/C(C#N)=C/C2CC(F)(F)C2)C3C)CC1 (mixture of isomers) [Compound B1]
40 to 70%

* * *

target: BRD9 (Homo sapiens); experiment: Degradation of BRD9 (IF), immunofluorescence in MV4-11 cells, 24 hours (Assay Protocol 2); assay type: cell-based; set-up: A suspension of MV4-11 cells (ATCC CRL-9591) was prepared; host or cells: MV4-11; settings: MV4-11, 24 h, Table 2; BRD9 degradation (IF), Assay Protocol 2, MV4-11 cells; read-out: Assay 2 DCmax
Recorded Dmax for the following molecules

Example entries begin here.
| MOLECULE | Dmax |
| --- | --- |
| COc1cc(-c2cn(C)c(=O)c3cnccc23)cc(OC)c1CN1CCC(N(C)c2cccc3c2CCN(C(=O)/C(C#N)=C/C(C)(C)C)C3C)CC1 (stereo not shown) [Compound A30] | < 50% |
| COc1cc(-c2cn(C)c(=O)c3cnccc23)cc(OC)c1CN1C2CCC1CN(Cc1cccc3c1CCN(C(=O)/C(C#N)=C/C(C)(C)C)C3C)C2 (stereo not shown) [Compound A49] | 40 to 70% |

Please give the measured Dmax for this molecule: COc1cc(-c2cn(C)c(=O)c3cnccc23)cc(OC)c1CN1CC2CCC(C1)N2Cc1cccc2c1CCN(C(=O)/C(C#N)=C/C(C)(C)C)C2C (mixture of isomers) [Compound A48]
40 to 70%

Same again, this time with COc1cc(-c2cn(C)c(=O)c3cnccc23)cc(OC)c1CN(C)Cc1ccc2c(c1)CCN(C(=O)/C(C#N)=C/c1cccc(Br)n1)C2C (mixture of isomers) [Compound A66]
> 75%

# repeat for COc1cc(-c2cn(C)c(=O)c3cnccc23)cc(OC)c1CN(C)Cc1cccc2c1CCN(C(=O)/C(C#N)=C/c1cccc(Br)n1)C2C (mixture of isomers) [Compound A50]
> 75%

Can you check COc1cc(-c2cn(C)c(=O)c(C)c2C)cc(OC)c1CN1CCN(Cc2cccc3c2CCN(C(=O)/C(C#N)=C/c2cccc(C(F)(F)F)n2)C3C)CC1 (mixture of isomers) [Compound A53] next?
40 to 70%

For COc1cc(-c2cn(C)c(=O)c3cnccc23)cc(OC)c1CN1CCN(Cc2cccc3c2CCN(C(=O)/C(C#N)=C\C2(F)CC2)C3C)CC1 (mixture of isomers) [Compound A22] then?
> 75%
